All values here come from patent US7323489B2.

Kindly state Presence ratio: proline ester or enalapril (unchanged) part of concentration ratio for each of the entries shown.
- System: three-dimensional cultured human skin model (LSE-high, Toyobo Co., Ltd.)
- method notes: Metabolism test by use of cultured human skin
- Format: in vitro ADME
- measurement conditions: receptor phase PBS pH 7.4, 24 hours, 1.0 mass % in isopropyl myristate, 200 μL applied, 37° C.
- Description: A sample of a three-dimensional cultured human skin model (LSE-high, Toyobo Co., Ltd.) was set in a vertical diffusion cell whose temperature was maintained at 37° C., and the receptor phase of the cell was filled with 7 mL isotonic phosphate buffer (PBS, pH 7.4). The cell was allowed to stand for one hour. […] From the obtained data, concentration ratio of “proline esters or enalapril”: “enalaprilat” was calculated (presence ratio).
Numbers only.

- compound: "C[C@H](N[C@@H](CCc1ccccc1)C(=O)O)C(=O)N1CCC[C@H]1C(=O)OCCCCO"
  val: 30.4
- compound: "C[C@H](N[C@@H](CCc1ccccc1)C(=O)O)C(=O)N1CCC[C@H]1C(=O)OCCO"
  val: 23.5

Dear colleague, could you send me Presence ratio: proline ester or enalapril (unchanged) part of concentration ratio for each of the items below? Thanks.
1. CCOC(=O)[C@H](CCc1ccccc1)N[C@@H](C)C(=O)N1CCC[C@H]1C(=O)O [Enalapril, reference compound]
2. C[C@H](N[C@@H](CCc1ccccc1)C(=O)O)C(=O)N1CCC[C@H]1C(=O)OCCCO

98.8
36.3
